- target: Recombinant ROCK2 (amino acids 5-554) (Homo sapiens)
- Construct: ROCK2 (amino acids 5-554)
- procedure text: ROCK inhibition assay, LANCE Ultra TR-FRET (ROCK2)
- run conditions: 1 mM of ATP
recorded metric: IC50

Observe how each entry below is paired with its result.
COc1[nH]ncc1-c1ccc2c(C(=O)C3COc4ccc(Cl)cc4C3)cn(CCN(C)C)c2n1 (stereo not shown) | 201 to 500 nM
COc1[nH]ncc1-c1ccc2c(C(=O)[C@H]3COc4ccc(F)cc4C3)cn(CCN(C)C)c2c1 | 201 to 500 nM
CN(C)CCn1cc(C(=O)C2COc3ccc(Cl)cc3O2)c2ccc(-c3c[nH]nc3Cl)cc21 (stereo not shown) | > 501 nM
CCN(C)CCn1cc(C(=O)C2COc3ccc(Cl)cc3C2)c2ccc(-c3cn[nH]c3OC)cc21 (stereo not shown) | 21 to 200 nM
CN(C)CCn1nc(C(=O)[C@@H]2COc3ccc(F)cc3C2)c2ccc(-c3c[nH]nc3Cl)cc21 | < 20 nM
COc1n[nH]cc1-c1ccc2c(C(=O)C3COc4ccc(Cl)cc4C3)cn(C[C@H](C)N)c2c1 (stereo partly shown) | < 20 nM

// lookup IC50 for COc1n[nH]cc1-c1ccc2c(C(=O)[C@H]3COc4ccc(Cl)cc4C3)cn(CCCN(C)C)c2c1 201 to 500 nM

---

Listed here are compounds together with their documented IC50.
- target: Recombinant ROCK1 (amino acids 1-477) (Homo sapiens)
- Construct: Recombinant ROCK1 (amino acids 1-477)
- Sequence (Q13464 1-477): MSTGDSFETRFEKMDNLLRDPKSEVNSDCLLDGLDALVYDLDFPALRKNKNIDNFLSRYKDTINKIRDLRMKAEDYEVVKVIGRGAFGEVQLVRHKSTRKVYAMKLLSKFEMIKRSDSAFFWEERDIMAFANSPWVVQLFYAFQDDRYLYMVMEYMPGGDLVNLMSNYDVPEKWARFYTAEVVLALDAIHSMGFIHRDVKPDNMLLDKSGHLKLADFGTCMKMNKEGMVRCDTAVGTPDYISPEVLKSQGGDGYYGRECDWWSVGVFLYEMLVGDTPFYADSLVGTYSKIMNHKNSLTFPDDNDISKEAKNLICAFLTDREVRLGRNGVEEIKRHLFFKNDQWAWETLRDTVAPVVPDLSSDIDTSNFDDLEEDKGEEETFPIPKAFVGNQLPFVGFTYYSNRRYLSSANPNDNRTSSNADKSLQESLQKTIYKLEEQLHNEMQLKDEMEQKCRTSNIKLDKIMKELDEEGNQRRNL
- procedure text: ROCK inhibition assay, LANCE Ultra TR-FRET (ROCK1)
- run conditions: 1 mM of ATP

COc1ccc2c(c1)CC(C(=O)c1cn(C[C@@H]3CCN3C)c3cc(-c4cn[nH]c4F)ccc13)CO2 (stereo partly shown) | > 501 nM
CN(C)C1(Cn2cc(C(=O)C3COc4ccc(Cl)cc4C3)c3ccc(-c4cn[nH]c4Cl)cc32)CC1 (stereo not shown) | 21 to 200 nM
COc1ccc2c(c1)C[C@H](C(=O)c1cn(C[C@H]3CCN3CC(F)(F)F)c3cc(-c4c[nH]nc4Cl)ccc13)CO2 | 21 to 200 nM
CN(C)CCn1cc(C(=O)[C@@H]2COc3ccc(Cl)cc3C2)c2ccc(-c3cn[nH]c3F)cc21 [Compound 1-25] | 201 to 500 nM
CN(C)CCn1nc(C(=O)C2COc3ccccc3O2)c2ccc(-c3cn[nH]c3)cc21 (stereo not shown) | > 501 nM

Fill in: IC50 of C[C@H](N)Cn1cc(C(=O)C2COc3ccc(Cl)cc3C2)c2ccc(-c3c[nH]nc3Cl)cc21 (stereo partly shown) is ___ < 20 nM

What value of measured IC50 is listed for COc1ccc2c(c1)CC(C(=O)c1cn(C[C@H]3CCN3C)c3cc(-c4cn[nH]c4OC)ccc13)CO2 (stereo partly shown) ? > 501 nM

Reported IC50 for CN(C)CCn1nc(C(=O)C2COc3ccc(Cl)cc3O2)c2ccc(-c3c[nH]nc3Cl)cc21 (stereo not shown) : what is it? > 501 nM

Please report the recorded IC50 for CNCCn1cc(C(=O)C2COc3ccc(F)cc3C2)c2cnc(-c3c[nH]nc3Cl)cc21 (stereo not shown) . > 501 nM

Which IC50 is listed for C[C@H](N)Cn1cc(C(=O)C2COc3ccc(Cl)cc3C2)c2ccc(-c3cn[nH]c3F)cc21 (stereo partly shown) ? > 501 nM

Param item = CCN(CC)CCn1cc(C(=O)C2COc3ccc(OC)cc3C2)c2ccc(-c3cn[nH]c3Cl)cc21 (stereo not shown) ; retrieve measured IC50. > 501 nM

If you can, please state the reported IC50 value of COc1[nH]ncc1-c1ccc2c(C(=O)C3COc4ccc(Cl)cc4C3)cn(C3CNC3)c2c1 (stereo not shown) . > 501 nM

Recorded IC50 for Cc1nocc1-c1ccc2c(C(=O)C3COc4ccc(F)cc4C3)cn(CCN(C)C)c2c1 (stereo not shown) , please? > 501 nM

---

- target: Recombinant ROCK2 (amino acids 5-554) (Homo sapiens)
- Construct: ROCK2 (amino acids 5-554)
- procedure text: ROCK inhibition assay, LANCE Ultra TR-FRET (ROCK2)
- run conditions: 1 mM of ATP
- Experimental: Kinase IC50 was determined through an in vitro assay based on LANCE Ultra TR-FRET (Time-Resolved Fluorescence Resonance Energy Transfer) homogeneous technologies method 5 (Perkin Elmer). […] Compound activities were measured by Envision and IC50s were calculated. […] The reaction was incubated for 1 hour, and the signal was read in Envision in TR-FRET mode (excitation at 320 nm and emission at 615/665 nm). […]
pIC50: −log10 of the molar value.
recorded metric: pIC50

The following molecules have reported results that may help.
CN(C)CCn1nc(C(=O)C2COc3ccc(Cl)cc3C2)c2ccc(-c3c[nH]nc3F)cc21 (stereo not shown) | > 7.70
COc1n[nH]cc1-c1ccc2c(C(=O)C3COc4ccc(F)cc4C3)cn(CCCN(C)C)c2c1 (stereo not shown) | 6.70 to 7.68

Find the recorded pIC50 belonging to COc1ccc2c(c1)CC(C(=O)c1cn(C[C@H]3CCN3)c3cc(-c4cn[nH]c4OC)ccc13)CO2 (stereo partly shown) and report it. > 7.70

Fill in: pIC50 of COc1[nH]ncc1-c1cc2c(cn1)c(C(=O)C1COc3ccc(Cl)cc3C1)cn2CCN(C)C (stereo not shown) [Compound 1-3] is ___ 6.70 to 7.68

Look at this molecule and give its reported pIC50. COc1ccc2c(c1)CC(C(=O)c1cn(C[C@H]3CCN3C)c3cc(-c4cn[nH]c4F)ccc13)CO2 (stereo partly shown) 6.70 to 7.68

Sample CCN(C)CCn1cc(C(=O)[C@@H]2COc3ccc(OC)cc3C2)c2ccc(-c3cn[nH]c3Cl)cc21 [Compound 3-28] — what was its pIC50? 6.70 to 7.68

What measured pIC50 goes with COc1n[nH]cc1-c1ccc2c(C(=O)C3COc4ccc(Cl)cc4C3)cn(CCN3CCC3)c2c1 (stereo not shown) ? 6.30 to 6.70

---

Entries and their pIC50
- target: Recombinant ROCK2 (amino acids 5-554) (Homo sapiens, UniProt O75116)
- Construct: ROCK2 (amino acids 5-554)
- Sequence (O75116 5-554): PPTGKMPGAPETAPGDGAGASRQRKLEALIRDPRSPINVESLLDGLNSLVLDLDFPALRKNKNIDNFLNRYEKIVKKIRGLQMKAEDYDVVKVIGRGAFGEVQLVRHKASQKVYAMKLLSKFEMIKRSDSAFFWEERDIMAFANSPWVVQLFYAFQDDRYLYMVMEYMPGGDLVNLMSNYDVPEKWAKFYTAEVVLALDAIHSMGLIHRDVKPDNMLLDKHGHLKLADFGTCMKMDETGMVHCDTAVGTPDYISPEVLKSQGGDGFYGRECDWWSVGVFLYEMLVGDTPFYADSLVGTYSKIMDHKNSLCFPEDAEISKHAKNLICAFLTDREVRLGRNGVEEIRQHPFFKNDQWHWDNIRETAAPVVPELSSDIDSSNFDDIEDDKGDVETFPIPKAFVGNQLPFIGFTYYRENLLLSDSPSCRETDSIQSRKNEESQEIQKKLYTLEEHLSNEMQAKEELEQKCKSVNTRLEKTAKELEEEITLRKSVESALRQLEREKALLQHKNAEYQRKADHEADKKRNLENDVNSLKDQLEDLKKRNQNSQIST
- procedure text: ROCK inhibition assay, LANCE Ultra TR-FRET (ROCK2)
- run conditions: 1 mM of ATP
pIC50: −log10 of the molar value.

COc1n[nH]cc1-c1ccc2c(C(=O)C3COc4ccc(Cl)cc4O3)nn(CCN(C)C)c2c1 (stereo not drawn) | 6.70 to 7.68
CN(C)CCn1cc(C(=O)[C@@H]2COc3ccc(Cl)cc3C2)c2ccc(-c3cn[nH]c3Cl)cc21 | > 7.70
CN(C)CCn1cc(C(=O)C2COc3ccc(F)cc3C2)c2ccc(-c3cn[nH]c3F)cc21 (stereo not drawn) | 6.70 to 7.68
C[C@H](Cn1cc(C(=O)C2COc3ccc(Cl)cc3C2)c2ccc(-c3cn[nH]c3F)cc21)N(C)C (stereo partly drawn) | > 7.70
COc1[nH]ncc1-c1ccc2c(C(=O)C3COc4ccc(Cl)cc4C3)cn(CC3CN(C)C3)c2c1 (stereo not drawn) | > 7.70

Param item = COc1ccc2c(c1)CC(C(=O)c1nn(CCN(C)C)c3cc(-c4c[nH]nc4OC)ccc13)CCO2 (stereo not drawn) ; retrieve measured pIC50. < 6.30

---

# pIC50 per record follows
- target: Recombinant ROCK2 (amino acids 5-554) (Homo sapiens, UniProt O75116)
- Construct: ROCK2 (amino acids 5-554)
- procedure text: ROCK inhibition assay, LANCE Ultra TR-FRET (ROCK2)
- run conditions: 1 mM of ATP
pIC50: −log10 of the molar value.

Test system Recombinant ROCK2 (amino acids 5-554) (Homo sapiens, UniProt O75116); read-out pIC50; what value for COc1ccc2c(c1)C[C@H](C(=O)c1cn(C[C@@H]3CCN3C)c3cc(-c4cn[nH]c4Cl)ncc13)CO2 [Compound 1-4] ? > 7.70

Recorded pIC50 for COc1n[nH]cc1-c1ccc2c(C(=O)C3CCOc4ccc(F)cc4C3)nn(CCN(C)C)c2c1 (stereo not shown) [Compound 5-62] with Recombinant ROCK2 (amino acids 5-554) (Homo sapiens, UniProt O75116), please? < 6.30

What measured pIC50 is associated with COc1[nH]ncc1-c1ccc2c(C(=O)C3COc4ccc(Cl)cc4C3)cn(CC3CCCN3C)c2c1 (stereo not shown) [Compound 1-19] on Recombinant ROCK2 (amino acids 5-554) (Homo sapiens, UniProt O75116)? 6.70 to 7.68

Record lookup: for Recombinant ROCK2 (amino acids 5-554) (Homo sapiens, UniProt O75116), what pIC50 belongs to CNCCn1cc(C(=O)C2COc3ccc(F)cc3C2)c2ccc(-c3c[nH]nc3Cl)nc21 (stereo not shown) [Compound 3-3] ? 6.70 to 7.68

Param readout = pIC50; param system = Recombinant ROCK2 (amino acids 5-554) (Homo sapiens, UniProt O75116); param query = COc1ccc2c(c1)CC(C(=O)c1nn(CCN(C)C)c3cc(-c4c[nH]nc4Cl)ccc13)CO2 (stereo not shown) [Compound 5-50] ; response: value > 7.70

Record COc1ccc2c(c1)CC(C(=O)c1cn(C[C@H]3CCN3)c3cc(-c4cn[nH]c4Cl)ccc13)CO2 (stereo partly shown) [Compound 1-35] : what is its pIC50 with Recombinant ROCK2 (amino acids 5-554) (Homo sapiens, UniProt O75116)? > 7.70

For the record CNCCn1cc(C(=O)C2COc3ccc(OC)cc3C2)c2ccc(-c3cn[nH]c3F)cc21 (stereo not shown) [Compound 3-24] , what value of pIC50 is listed for Recombinant ROCK2 (amino acids 5-554) (Homo sapiens, UniProt O75116)? 6.70 to 7.68
